MEASUREMENT TARGET: human vasopressin V1a receptor (Homo sapiens)
Sequence (P37288 whole entry): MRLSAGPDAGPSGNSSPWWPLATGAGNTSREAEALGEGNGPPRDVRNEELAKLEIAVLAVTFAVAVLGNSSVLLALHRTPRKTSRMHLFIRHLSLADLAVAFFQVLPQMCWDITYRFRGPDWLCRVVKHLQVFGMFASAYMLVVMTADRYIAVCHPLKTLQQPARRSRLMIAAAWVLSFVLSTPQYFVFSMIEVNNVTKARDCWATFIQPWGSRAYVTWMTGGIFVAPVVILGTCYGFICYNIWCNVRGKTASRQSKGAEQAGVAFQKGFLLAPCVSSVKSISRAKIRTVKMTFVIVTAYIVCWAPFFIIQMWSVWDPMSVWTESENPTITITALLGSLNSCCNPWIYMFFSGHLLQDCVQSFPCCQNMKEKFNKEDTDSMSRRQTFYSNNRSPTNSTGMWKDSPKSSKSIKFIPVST
TEST PROTOCOL: Vasopressin V1a receptor binding assay (125I-AVP displacement, CHO-K1 membranes)
CONDITION SET: selectivity quotient, human V1a vs human V1b receptor binding
RECORDED ENDPOINT: Ki(h-V1a)/Ki(h-V1b)

Past entries and their recorded results:
mol_smiles=CCOc1ncccc1[C@]1(NC(=O)N2CC(N3CCC(N4CCOCC4)CC3)C2)C(=O)N(S(=O)(=O)c2ccc(OC)cc2)c2ccc(C#N)cc21 measurement_target="human vasopressin V1a receptor (Homo sapiens)" val="++ (25-75)"
mol_smiles=COc1ccc(S(=O)(=O)N2C(=O)[C@@](NC(=O)N3CC(N4CCC(NC5COC5)CC4)C3)(c3cccnc3OC)c3cc(C#N)ccc32)c(OC)c1 measurement_target="human vasopressin V1a receptor (Homo sapiens)" val="+ (10-<25)"
mol_smiles=COc1ccc(S(=O)(=O)N2C(=O)[C@@](NC(=O)N3CC(N4CCC(N(C)C5COC5)CC4)C3)(c3cccnc3OC)c3cc(C#N)ccc32)c(OC)c1 measurement_target="human vasopressin V1a receptor (Homo sapiens)" val="+++ (>75)"
mol_smiles=CCOc1ncccc1[C@]1(NC(=O)N2CC(N3CCC(N4CCOCC4)CC3)C2)C(=O)N(S(=O)(=O)c2ccc(F)cc2OC)c2ccc(C#N)cc21 measurement_target="human vasopressin V1a receptor (Homo sapiens)" val="+++ (>75)"
mol_smiles=CCOc1ncccc1[C@]1(NC(=O)N2CC(N3CCC(N(C)C4COC4)CC3)C2)C(=O)N(S(=O)(=O)c2ccc(OC)cc2OC)c2ccc(C#N)cc21 measurement_target="human vasopressin V1a receptor (Homo sapiens)" val="+++ (>75)"

Quick one: give me Ki(h-V1a)/Ki(h-V1b) for each item below, same order please.
1. COc1ccc(S(=O)(=O)N2C(=O)[C@@](NC(=O)N3CC(N4CCC(N5CCOCC5)CC4)C3)(c3cccnc3OC)c3cc(C#N)ccc32)c(OC)c1
2. CCOc1ncccc1[C@]1(NC(=O)N2CC(N3CCC(N4CCOCC4)CC3)C2)C(=O)N(S(=O)(=O)c2cc(F)c(OC)cc2OC)c2ccc(C#N)cc21
3. CCOc1ncccc1[C@]1(NC(=O)N2CC(N3CCC(N4CCC5(CC4)COC5)CC3)C2)C(=O)N(S(=O)(=O)c2ccc(OC)cc2OC)c2ccc(C#N)cc21
4. COc1ccc(S(=O)(=O)N2C(=O)[C@@](NC(=O)N3CC(N4CCC(N(C)C5COC5)CC4)C3)(c3cc(OC)ccc3OC)c3cc(C#N)ccc32)c(OC)c1
5. COc1ccc(S(=O)(=O)N2C(=O)[C@@](NC(=O)N3CC(N4CCC(N5CCOCC5)CC4)C3)(c3cc(OC)ccc3OC)c3cc(C#N)ccc32)c(OC)c1

// result
1. +++ (>75)
2. +++ (>75)
3. +++ (>75)
4. ++ (25-75)
5. + (10-<25)

Please look at the items below and tell me Ki(h-V1a)/Ki(h-V1b) for each one, in order.
1. CCOc1ncccc1[C@]1(NC(=O)N2CC(N3CCC(N4CCOCC4)CC3)C2)C(=O)N(S(=O)(=O)c2ccc(OC)cc2OC)c2ccc(C#N)cc21
2. CCOc1ncccc1[C@]1(NC(=O)N2CC(N3CCC(N(CC)C4COC4)CC3)C2)C(=O)N(S(=O)(=O)c2ccc(OC)cc2OC)c2ccc(C#N)cc21

// result
1: +++ (>75); 2: +++ (>75)
